// reported cKit(D816V)(h) % activity per item
Biological target: cKit(D816V)(h) (Homo sapiens, UniProt P10721, D816V)
Test: Kinase Profiling Assay
Assay type: biochemical
Settings: 100 μM peptide
Return type: number; implicit unit %.

Worked set:
>>> print(df.to_string())
                             sequence_chain  units_of_measure  recorded_number
0  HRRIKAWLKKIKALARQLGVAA (Mammalian) [MMI-0500]                 %               30
1        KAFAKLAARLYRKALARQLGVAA [MMI-0400]                 %               35
2          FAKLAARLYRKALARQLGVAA [MMI-0300]                 %               60

[Q] Look up cKit(D816V)(h) % activity: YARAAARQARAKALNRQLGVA (Mammalian) [MMI-0200]
[A] 118

====

// reported TSSK1(h) % activity per item
Biological target: TSSK1(h) (Homo sapiens)
Sequence (Q9BXA7 1-367): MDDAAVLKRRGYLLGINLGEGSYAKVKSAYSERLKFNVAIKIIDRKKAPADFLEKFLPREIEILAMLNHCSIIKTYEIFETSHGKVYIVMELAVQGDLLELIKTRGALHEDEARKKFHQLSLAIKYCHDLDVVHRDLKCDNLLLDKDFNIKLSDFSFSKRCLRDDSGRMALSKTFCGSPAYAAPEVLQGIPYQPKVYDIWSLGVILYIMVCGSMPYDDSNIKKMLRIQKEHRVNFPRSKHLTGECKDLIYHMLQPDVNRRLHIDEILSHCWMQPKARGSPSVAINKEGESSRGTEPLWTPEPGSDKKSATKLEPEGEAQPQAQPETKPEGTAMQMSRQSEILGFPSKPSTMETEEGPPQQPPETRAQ
Experiment: Kinase Profiling Assay
Assay type: biochemical
Settings: 100 μM peptide
Record the result as a number with its unit.

Worked set:
>>> df
                             sequence_chain  result
0  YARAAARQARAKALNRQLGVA (Mammalian) [MMI-0200]     98%
1  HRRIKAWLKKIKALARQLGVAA (Mammalian) [MMI-0500]     46%
2        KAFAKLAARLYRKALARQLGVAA [MMI-0400]     79%

Note: attention shifts to another entry.
[Q] Give the reported TSSK1(h) % activity for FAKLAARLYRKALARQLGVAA [MMI-0300] (system: TSSK1(h) (Homo sapiens)).
[A] 79%

====

Molecular target: PKBβ(h) (Homo sapiens, UniProt P31751)
Sequence (P31751 whole entry): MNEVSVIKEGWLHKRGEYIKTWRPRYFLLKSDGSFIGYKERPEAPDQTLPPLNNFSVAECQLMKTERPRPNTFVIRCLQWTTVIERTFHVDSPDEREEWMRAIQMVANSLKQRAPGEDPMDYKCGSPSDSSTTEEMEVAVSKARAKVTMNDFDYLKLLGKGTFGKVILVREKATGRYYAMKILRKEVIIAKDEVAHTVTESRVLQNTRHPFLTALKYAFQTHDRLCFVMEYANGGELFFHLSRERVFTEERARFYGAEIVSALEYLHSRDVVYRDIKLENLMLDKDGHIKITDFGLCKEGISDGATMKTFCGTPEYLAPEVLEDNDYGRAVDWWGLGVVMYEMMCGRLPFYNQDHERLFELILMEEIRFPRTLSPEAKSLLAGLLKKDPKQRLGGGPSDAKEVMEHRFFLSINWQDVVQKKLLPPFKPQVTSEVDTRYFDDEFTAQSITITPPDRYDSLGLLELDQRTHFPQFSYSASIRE
Assay: Kinase Profiling Assay
Assay type: biochemical
Settings: 100 μM peptide
Procedure: Every kinase activity measurement was conducted in duplicate. In addition to determining the IC50 of the compound, the specificity of MK2 inhibitory peptides was assessed by examining activities of all 266 human kinases available for testing in the Millipore kinase profiling service (Table 1).
// reported PKBβ(h) % activity per item
Return type: number; implicit unit %.

>>> df
                             sequence_chain  recorded_number
0  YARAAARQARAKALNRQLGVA (Mammalian) [MMI-0200]              250
1        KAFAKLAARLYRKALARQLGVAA [MMI-0400]               98

[Q] Look up PKBβ(h) % activity: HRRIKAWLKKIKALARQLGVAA (Mammalian) [MMI-0500]
[A] 21

[Q] Look up PKBβ(h) % activity: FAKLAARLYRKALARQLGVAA [MMI-0300]
[A] 84
